Assignment: determine reported log10 of MIC for the given compounds.
Test system: Mycobacterium tuberculosis
measurementNotes: Antibacterial activity against Mycobacterium tuberculosis
Format: functional, organism-based
For clarity, the numbers are log10 values of MIC expressed in mg/L.

Would you be so kind as to report log10 of MIC for each listed record?
1. CC(=O)NCCc1c2c(c3nccc4c3c1Nc1ccccc1-4)NC(=O)CS2
2. On1ccc2c3ccccc3nc-2c1C1=CC2(O)CCC/C=C\CCCN3CCC1C1(CC4/C=C\CCCCN4C21)C3 (stereo not given)
3. COc1ccc2c(c[n+](C)c3c4cc5c(cc4ccc23)OCO5)c1OC
4. O=C1c2cccnc2-c2nccc3c2c1nc1ccccc13

**A:**
1: 1.10; 2: 0.59; 3: 0.49; 4: -2.00

**Q:** Query the reported log10 of MIC for Mycobacterium tuberculosis; item: CSC1=C(CCNC(C)=O)c2nc3ccccc3c3ccnc(c23)C1=O
**A:** 0.79

====

Tested on: Mycobacterium tuberculosis
measurementNotes: Antibacterial activity against Mycobacterium tuberculosis
Format: functional, organism-based
Response field label: string, one of t (MIC strictly below 6 µg/mL) or f.

The following compounds have reported results that may help.
[[record]]
compound = "COc1cc2c(cc1OC)-c1cc(CC(C)=O)c3cc4c(cc3c1N(C)C2)OCO4"
qualitativelabel = "f"

[[record]]
compound = "O=C1c2c(O)ccnc2-c2nccc3c2c1nc1ccccc13"
qualitativelabel = "f"

[[record]]
compound = "COc1cc2c(cc1O)CCNC21C[S+]([O-])C2c3c(OC(C)=O)c(C)c4c(c3C(COC1=O)N1C(C#N)C3CC5CC(C)C(OC)C(O)C5C(C21)N3C)OCO4 (stereo not drawn)"
qualitativelabel = "t"

[[record]]
compound = "CC(=O)NCCc1c2c3c(ccnc3c3ncsc13)-c1ccccc1N2"
qualitativelabel = "f"

[[record]]
compound = "O=C1c2scnc2-c2nccc3c2c1nc1ccccc13"
qualitativelabel = "t"


Shift focus to the following entry.
**Q:** Strictly below 6 µg/mL: is that where MIC of OC12C=C(c3nccc4c3[nH]c3ccccc34)C3CCN(CCCC/C=C\CC1)CC31CC34CCC(CCCN3C21)O4 (stereo not drawn) sits?
**A:** t

Just for reference, ChEMBL document CHEMBL5126535 is where these values come from.
